Target: Recombinant human KIF18A (1-467 His-tagged) protein (Homo sapiens, UniProt Q8NI77)
Construct: Recombinant human KIF18A (1-467 His-tagged) protein; His
Sequence (Q8NI77 1-467): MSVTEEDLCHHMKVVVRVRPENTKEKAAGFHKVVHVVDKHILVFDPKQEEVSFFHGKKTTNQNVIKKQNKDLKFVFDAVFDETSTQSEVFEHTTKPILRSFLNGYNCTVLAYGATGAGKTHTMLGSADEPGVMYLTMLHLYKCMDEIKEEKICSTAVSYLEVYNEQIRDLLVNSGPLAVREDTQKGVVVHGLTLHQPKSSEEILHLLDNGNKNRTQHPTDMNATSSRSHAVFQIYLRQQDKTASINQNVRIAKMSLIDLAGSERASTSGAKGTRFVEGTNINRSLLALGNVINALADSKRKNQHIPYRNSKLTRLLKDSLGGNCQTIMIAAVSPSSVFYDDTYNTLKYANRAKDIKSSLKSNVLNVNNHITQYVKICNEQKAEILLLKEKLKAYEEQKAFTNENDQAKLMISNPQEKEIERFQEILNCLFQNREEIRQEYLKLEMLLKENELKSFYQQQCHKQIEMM
Sequence (P02550 whole entry partner): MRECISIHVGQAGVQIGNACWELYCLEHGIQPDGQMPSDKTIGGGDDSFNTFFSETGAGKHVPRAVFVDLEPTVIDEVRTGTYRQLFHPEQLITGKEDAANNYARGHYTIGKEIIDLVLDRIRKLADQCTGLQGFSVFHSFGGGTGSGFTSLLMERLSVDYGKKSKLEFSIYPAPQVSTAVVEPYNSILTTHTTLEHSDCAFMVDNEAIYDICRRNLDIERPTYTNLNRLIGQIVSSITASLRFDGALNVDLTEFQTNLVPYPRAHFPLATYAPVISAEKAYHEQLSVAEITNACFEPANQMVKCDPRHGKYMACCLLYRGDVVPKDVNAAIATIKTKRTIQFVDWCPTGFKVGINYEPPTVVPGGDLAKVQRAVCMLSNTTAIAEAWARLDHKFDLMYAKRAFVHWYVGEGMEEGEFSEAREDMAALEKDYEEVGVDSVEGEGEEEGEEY
Sequence (P02554 whole entry partner): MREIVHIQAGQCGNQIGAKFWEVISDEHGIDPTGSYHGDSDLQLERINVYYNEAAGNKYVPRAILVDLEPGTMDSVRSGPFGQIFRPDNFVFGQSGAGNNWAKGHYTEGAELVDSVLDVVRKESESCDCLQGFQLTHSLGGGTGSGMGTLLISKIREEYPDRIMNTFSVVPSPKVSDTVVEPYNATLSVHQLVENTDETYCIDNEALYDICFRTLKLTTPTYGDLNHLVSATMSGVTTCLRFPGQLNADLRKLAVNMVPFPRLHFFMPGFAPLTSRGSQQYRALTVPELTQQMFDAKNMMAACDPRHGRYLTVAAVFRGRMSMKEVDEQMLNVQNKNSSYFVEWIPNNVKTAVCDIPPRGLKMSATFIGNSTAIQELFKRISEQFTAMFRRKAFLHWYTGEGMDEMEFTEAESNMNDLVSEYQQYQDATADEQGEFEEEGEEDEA
Experiment: KIF18A Enzyme Assay: microtubule-stimulated ATPase activity (ADP-Glo)
Conditions: 30 nM KIF18A, 30 μg/mL pig microtubules, 75 μM ATP, ADP-Glo luminescence
quantity-kind: pIC50
API: returns pIC50 as number; meaning -log10 of concentration in mol/L.

                                   compound                              assay_system  quantity_kind  data_value
0  CC(C)(CO)Nc1ccc(C(=O)Nc2cccc(C3CCOCC3)n2)c(N2CCC3(CC2)CC3)n1  Recombinant human KIF18A (1-467 His-tagged) protein (Homo sapiens, UniProt Q8NI77)          pIC50        6.61
1  C[C@H]1CN(c2cccc(NC(=O)c3ccc(NC(C)(C)CO)nc3N3CCC4(CC3)CC4)n2)CCO1  Recombinant human KIF18A (1-467 His-tagged) protein (Homo sapiens, UniProt Q8NI77)          pIC50        7.09

q: What measured pIC50 is associated with CC(C)(CO)Nc1ccc(C(=O)Nc2cccc(N3CCOC(CN)C3)n2)c(N2CCC3(CC2)CC3)n1 (stereo not shown) on Recombinant human KIF18A (1-467 His-tagged) protein (Homo sapiens, UniProt Q8NI77)?
a: 6.45

q: What measured pIC50 is associated with `CC(C)(C)NS(=O)(=O)c1cccc(NC(=O)c2ncc(N3C(=O)OCC3(C)C)nc2N2CCC3(CC2)CC3)n1` on Recombinant human KIF18A (1-467 His-tagged) protein (Homo sapiens, UniProt Q8NI77)?
a: 6.09

q: What measured pIC50 is associated with `CC(C)(CO)Nc1cnc(C(=O)Nc2cccc(S(=O)(=O)N3CCCCC3)n2)c(N2CCC3(CC2)CC3)n1` on Recombinant human KIF18A (1-467 His-tagged) protein (Homo sapiens, UniProt Q8NI77)?
a: 7.15

q: What measured pIC50 is associated with `CC(C)(CO)Nc1ccc(C(=O)Nc2cc(C3CC3)cc(N3CCOCC3)n2)c(N2CCC3(CC2)CC3)n1` on Recombinant human KIF18A (1-467 His-tagged) protein (Homo sapiens, UniProt Q8NI77)?
a: 6.56

q: What measured pIC50 is associated with `C[C@@H]1COCCN1c1cccc(NC(=O)c2ccc(NC(C)(C)CO)nc2N2CCC3(CC2)CC3)n1` on Recombinant human KIF18A (1-467 His-tagged) protein (Homo sapiens, UniProt Q8NI77)?
a: 7.01

* * *

Molecular target: Recombinant human KIF18A (1-467 His-tagged) protein (Homo sapiens)
Construct: Recombinant human KIF18A (1-467 His-tagged) protein; His
Experiment: KIF18A Enzyme Assay: microtubule-stimulated ATPase activity (ADP-Glo)
Settings: 30 nM KIF18A, 30 μg/mL pig microtubules, 75 μM ATP, ADP-Glo luminescence
quantity-kind: IC50 (nM)
Reply numerically in nM, unit not repeated.

Observe how each entry below is paired with its result.
>>> print(df.to_string())
                                   compound  data_value
0  CC(C)(CO)Nc1ccc(C(=O)Nc2cccc(N3CC4(COC4)C3)n2)c(N2CCC3(CC2)CC3)n1 [Example 163]         159
1  COC1CCN(c2cccc(NC(=O)c3ccc(NC(C)(C)CO)nc3N3CCC4(CC3)CC4)n2)C1 (centres unmarked) [Example 124]         407

q: What measured IC50 goes with CC(C)(C)NS(=O)(=O)c1cccc(NC(=O)c2ccc([C@](O)(CO)C(F)(F)F)nc2N2CCC3(CC2)CC3)n1 (single isomer, unassigned) [Example 176] ?
a: 101

q: What measured IC50 goes with C[C@@H]1CN(c2cccc(NC(=O)c3ccc(S(N)(=O)=O)nc3N3CCC4(CC3)CC4)n2)CCO1 [Example 224] ?
a: 68.8

* * *

Target: Recombinant human KIF18A (1-467 His-tagged) protein (Homo sapiens)
Construct: Recombinant human KIF18A (1-467 His-tagged) protein; His
Assay: KIF18A Enzyme Assay: microtubule-stimulated ATPase activity (ADP-Glo)
Settings: 30 nM KIF18A, 30 μg/mL pig microtubules, 75 μM ATP, ADP-Glo luminescence
Reported pIC50 values are given for each entry in this list.
API: returns pIC50 as number; meaning -log10 of concentration in mol/L.

>>> df
                                   compound  data_value
0  CC(C)(C)NS(=O)(=O)c1cccc(NC(=O)c2ccc([C@@](C)(O)CO)nc2N2CCC3(CC2)CC3)n1 (single isomer, unassigned)        6.96
1  O=C(Nc1cccc(N2CCOCC2)n1)c1ccc([C@](O)(CO)C(F)(F)F)nc1N1CCC2(CC1)CC2 (single isomer, unassigned)        7.16
2  CC(C)(C)NS(=O)(=O)c1cccc(NC(=O)c2ccc(C(F)CO)nc2N2CCC3(CC2)CC3)n1 (stereo not shown)        6.71
3  CC(C)(C)NS(=O)(=O)c1cccc(NC(=O)c2ccc(C(O)(CO)C(F)(F)F)nc2N2CCC3(CC2)CC3)n1 (racemic)        6.92
4  CC(C)(CO)Nc1ccc(C(=O)Nc2cccc(N3CC(O)CC3(C)C)n2)c(N2CCC3(CC2)CC3)n1 (stereo not shown)        6.66

q: What measured pIC50 goes with C[C@H]1CN(c2cccc(NC(=O)c3ncc(NC(C)(C)CO)nc3N3CCC4(CC3)CC4)n2)C[C@H](C)O1 (racemic) ?
a: 6.96

q: What measured pIC50 goes with `CNS(=O)(=O)c1ccc(C(=O)Nc2cccc(N3CCO[C@H](C)C3)n2)c(N2CCC3(CC2)CC3)n1` ?
a: 7.10

* * *

Biological target: Recombinant human KIF18A (1-467 His-tagged) protein (Homo sapiens, UniProt Q8NI77)
Construct: Recombinant human KIF18A (1-467 His-tagged) protein; His
Assay: KIF18A Enzyme Assay: microtubule-stimulated ATPase activity (ADP-Glo)
Settings: 30 nM KIF18A, 30 μg/mL pig microtubules, 75 μM ATP, ADP-Glo luminescence
quantity-kind: pIC50
API: returns pIC50 as number; meaning -log10 of concentration in mol/L.

Observe how each entry below is paired with its result.
In [3]: df
Out[3]:
                                   molecule                              assay_system  quantity_kind  data_value
0  CC(C)(CO)Nc1ccc(C(=O)Nc2cccc(N3C[C@@H]4C[C@H]3CO4)n2)c(N2CCC3(CC2)CC3)n1 (racemic) [Example 151]  Recombinant human KIF18A (1-467 His-tagged) protein (Homo sapiens, UniProt Q8NI77)          pIC50        7.04
1  CCC1CN(c2cccc(NC(=O)c3ccc(NC(C)(C)CO)nc3N3CCC4(CC3)CC4)n2)CCO1 (stereo not drawn) [Example 204]  Recombinant human KIF18A (1-467 His-tagged) protein (Homo sapiens, UniProt Q8NI77)          pIC50        6.79
2  CC(C)(C)NS(=O)(=O)c1cccc(NC(=O)c2ccc(C3(C(F)(F)F)COC(C)(C)O3)nc2N2CCC3(CC2)CC3)n1 (racemic) [Example 171]  Recombinant human KIF18A (1-467 His-tagged) protein (Homo sapiens, UniProt Q8NI77)          pIC50        6.54
3  CC(C)(C)NS(=O)(=O)c1cccc(NC(=O)c2ncc(C(C)(O)C(F)(F)F)nc2N2CCC3(CC2)CC3)n1 (stereo not drawn) [Example 110]  Recombinant human KIF18A (1-467 His-tagged) protein (Homo sapiens, UniProt Q8NI77)          pIC50        6.59
4  CC(C)(CO)Nc1cnc(C(=O)Nc2cc(C#N)cc(N3CCOCC3)n2)c(N2CCC3(CC2)CC3)n1 [Example 117]  Recombinant human KIF18A (1-467 His-tagged) protein (Homo sapiens, UniProt Q8NI77)          pIC50        6.86

q: What measured pIC50 goes with COC(=O)C(F)(C(=O)OC)c1ccc(C(=O)Nc2cccc(N3CCO[C@H](C)C3)n2)c(N2CCC3(CC2)CC3)n1 [Example 198] ?
a: 6.81

q: What measured pIC50 goes with CC(C)(CO)Nc1ccc(C(=O)Nc2cccc(C3=CCOCC3)n2)c(N2CCC3(CC2)CC3)n1 [Example 138] ?
a: 7.08

q: What measured pIC50 goes with O=C(Nc1cccc(S(=O)(=O)N2CCCCC2)n1)c1ncc(NC2(CO)CC2)nc1N1CCC2(CC1)CC2 [Example 101] ?
a: 6.97

q: What measured pIC50 goes with CC(CO)(CO)Nc1ccc(C(=O)Nc2cccc(Br)n2)c(N2CCC3(CC2)CC3)n1 [Example 164] ?
a: 5.56

q: What measured pIC50 goes with CC(O)(c1ccc(C(=O)Nc2cccc(N3CCOCC3)n2)c(N2CCC3(CC2)CC3)n1)C(F)(F)F (stereo not drawn) [Example 140] ?
a: 7.15
